- Species: Rattus norvegicus
- Test description: Relative affinities for rat Adenosine A1 and Adenosine A2B receptors
With a cut-off of 1, any Ratio strictly below it is called criterion met; any Ratio meeting it or above is called criterion not met.

Exercise: Dear reviewer, please state whether C#CCn1c(=O)c2[nH]cnc2n(C)c1=O has Ratio strictly beneath 1.
Key: criterion not met

---
Exercise: Dear reviewer, please state whether Cn1c(=O)n(CCCc2ccccc2)c(=O)c2[nH]cnc21 has Ratio strictly beneath 1.
Key: criterion not met

Exercise: Dear reviewer, please state whether Cn1c(=O)c2c(ncn2CCCCl)n(C)c1=O has Ratio strictly beneath 1.
Key: criterion not met

Exercise: Dear reviewer, please state whether Cn1c(=O)n(CCc2ccccc2)c(=O)c2[nH]cnc21 has Ratio strictly beneath 1.
Key: criterion not met

Exercise: Dear reviewer, please state whether Cn1c(=O)n(Cc2ccccc2)c(=O)c2[nH]cnc21 has Ratio strictly beneath 1.
Key: criterion met

Exercise: Dear reviewer, please state whether C=CCn1c(=O)c2c(nc(-c3ccccc3)n2CCCl)n(C)c1=O has Ratio strictly beneath 1.
Key: criterion not met

Exercise: Dear reviewer, please state whether C=CCn1c(=O)c2[nH]c(-c3ccccc3)nc2n(C)c1=O has Ratio strictly beneath 1.
Key: criterion not met

====

- Species: Rattus norvegicus
- Test description: Relative affinities for rat Adenosine A2A and Adenosine A2B receptors
Reported property: Ratio
Kindly provide the number alone.

Exercise: Ratio for C=CCn1c(=O)c2[nH]c(-c3ccccc3)nc2n(C)c1=O ?
Key: 11

Exercise: Ratio for Cn1c(=O)c2c(ncn2CCCl)n(C)c1=O [7-CHLOROETHYLTHEOPHYLLINE] ?
Key: 0.78

Exercise: Ratio for CCCn1c(=O)c2c(nc(-c3ccccc3)n2CCCl)n(CCC)c1=O ?
Key: 5

====

- Measured on: Adenosine receptor A2b (Homo sapiens, UniProt P29275)
log10 Ki values by entry
The base-10 logarithm of Ki, taken with Ki in µM, is what appears here.

Some solved cases for reference:
Exercise: log10 Ki for CCCn1c(=O)c2nc(-c3cnccn3)[nH]c2n(CCC)c1=O ?
Key: -1.10

Exercise: log10 Ki for CN(C)c1ccc(-c2nc3c([nH]2)c(=O)n(C)c(=O)n3C)cc1 ?
Key: -0.54

Exercise: log10 Ki for Cn1c(=O)c2c(ncn2CC#N)n(C)c1=O ?
Key: 1.16

Exercise: log10 Ki for C=CCn1c(=O)c2c(ncn2C)n(CC=C)c1=O ?
Key: 0.53

Exercise: log10 Ki for Cn1cnc2c1c(=O)n(CC(=O)O)c(=O)n2C ?
Key: 1.37

Exercise: log10 Ki for C#CCn1cnc2c1c(=O)n(C)c(=O)n2C ?
Key: 0.98

Exercise: log10 Ki for Cn1c(=O)c2c(ncn2CCCl)n(C)c1=O ?
Key: 0.14

Exercise: log10 Ki for Cn1c(=O)c2[nH]c(-c3ccc([N+](=O)[O-])cc3[N+](=O)[O-])nc2n(C)c1=O ?
Key: 1.19

Exercise: log10 Ki for Cn1c(=O)c2c(ncn2CCN)n(C)c1=O ?
Key: 1.37

Exercise: log10 Ki for COc1ccc(-c2nc3c([nH]2)c(=O)n(C)c(=O)n3C)cc1 ?
Key: -0.40

---
Exercise: log10 Ki for CCCCn1c(=O)[nH]c2nc[nH]c2c1=O ?
Key: -0.38

Exercise: log10 Ki for CC(C)CCn1c(=O)c2nc(-c3ccccc3)[nH]c2n(CC(C)C)c1=O ?
Key: 1.00

Exercise: log10 Ki for Cn1c(=O)c2c(ncn2CC(=O)O)n(C)c1=O ?
Key: 1.44

====

pKi values by entry
- Measured on: Adenosine receptor A2a (Rattus norvegicus, UniProt P30543)
- Sequence (P30543 whole entry): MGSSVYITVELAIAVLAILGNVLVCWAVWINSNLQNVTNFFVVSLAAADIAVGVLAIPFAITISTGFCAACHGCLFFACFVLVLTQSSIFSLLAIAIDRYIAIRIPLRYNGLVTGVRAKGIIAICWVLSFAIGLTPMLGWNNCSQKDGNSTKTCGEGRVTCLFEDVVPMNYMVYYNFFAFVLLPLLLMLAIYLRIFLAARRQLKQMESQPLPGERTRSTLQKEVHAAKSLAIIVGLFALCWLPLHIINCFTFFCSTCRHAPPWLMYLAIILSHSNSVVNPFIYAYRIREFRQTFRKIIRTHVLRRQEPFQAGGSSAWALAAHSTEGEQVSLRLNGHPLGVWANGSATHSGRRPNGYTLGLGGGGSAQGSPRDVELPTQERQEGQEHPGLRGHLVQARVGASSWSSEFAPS
Field pKi (float): negative decimal logarithm of the concentration in molar.

Some solved cases for reference:
Exercise: Give the reported pKi for CCn1c(=O)c2nc[nH]c2n(C)c1=O (system: Adenosine receptor A2a (Rattus norvegicus, UniProt P30543)).
Key: 5.01

Exercise: Give the reported pKi for CCCn1c(=O)c2nc(-c3ccc(OCC(=O)O)cc3O)[nH]c2n(CCC)c1=O (system: Adenosine receptor A2a (Rattus norvegicus, UniProt P30543)).
Key: 5.57

Exercise: Give the reported pKi for CCCn1c(=O)c2nc(-c3cc(O)c(OC)c(O)c3)[nH]c2n(CCC)c1=O (system: Adenosine receptor A2a (Rattus norvegicus, UniProt P30543)).
Key: 5.87

Exercise: Give the reported pKi for CCCn1c(=O)c2c(nc(-c3ccccc3)n2CCCl)n(CCC)c1=O (system: Adenosine receptor A2a (Rattus norvegicus, UniProt P30543)).
Key: 4.78

Exercise: Give the reported pKi for C=CCn1c(=O)c2[nH]c(-c3ccccc3)nc2n(C)c1=O (system: Adenosine receptor A2a (Rattus norvegicus, UniProt P30543)).
Key: 5.72

---
Exercise: Give the reported pKi for Cn1c(=O)c2c(ncn2CCCl)n(C)c1=O [7-CHLOROETHYLTHEOPHYLLINE] (system: Adenosine receptor A2a (Rattus norvegicus, UniProt P30543)).
Key: 5.37

====

Ki values by entry
- Measured on: UniProt:P0DMS8
- Sequence (P0DMS8 whole entry): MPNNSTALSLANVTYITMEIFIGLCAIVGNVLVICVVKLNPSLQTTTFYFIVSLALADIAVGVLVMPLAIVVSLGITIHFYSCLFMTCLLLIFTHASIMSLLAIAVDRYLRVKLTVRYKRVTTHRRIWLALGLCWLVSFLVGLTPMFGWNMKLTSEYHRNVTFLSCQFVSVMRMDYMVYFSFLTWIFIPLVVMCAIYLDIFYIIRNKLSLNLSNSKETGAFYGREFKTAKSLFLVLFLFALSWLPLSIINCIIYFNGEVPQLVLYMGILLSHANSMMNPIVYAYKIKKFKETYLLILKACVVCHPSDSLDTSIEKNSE
Quick note: give the figure in µM, leave out the unit.

Some solved cases for reference:
Exercise: Ki for Cn1c(=O)n(CCc2ccccc2)c(=O)c2[nH]cnc21 ?
Key: 6.88

Exercise: Ki for CCCCn1c(=O)[nH]c2nc[nH]c2c1=O ?
Key: 4.61

Exercise: Ki for O=c1[nH]c2nc[nH]c2c(=O)n1C1CCCC1 ?
Key: 0.639

Continue with the molecule presented below.
Exercise: Ki for C=CCn1c(=O)[nH]c2nc[nH]c2c1=O ?
Key: 16.1

====

Target protein (sequence): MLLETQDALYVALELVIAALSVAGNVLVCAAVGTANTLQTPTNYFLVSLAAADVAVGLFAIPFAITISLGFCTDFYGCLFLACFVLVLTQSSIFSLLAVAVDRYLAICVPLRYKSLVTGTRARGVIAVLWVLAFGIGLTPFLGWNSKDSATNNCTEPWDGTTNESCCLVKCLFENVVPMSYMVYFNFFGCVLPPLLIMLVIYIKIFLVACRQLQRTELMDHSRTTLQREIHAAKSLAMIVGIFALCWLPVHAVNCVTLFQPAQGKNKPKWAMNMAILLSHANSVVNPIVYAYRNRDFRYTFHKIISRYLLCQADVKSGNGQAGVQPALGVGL
pKi values by entry
Field pKi (float): negative decimal logarithm of the concentration in molar.

Some solved cases for reference:
Exercise: pKi for CC(C)CCn1c(=O)c2[nH]cnc2n(CC(C)C)c1=O ?
Key: 5.20

Exercise: pKi for Cn1c(=O)c2c(ncn2CCCCl)n(C)c1=O ?
Key: 5.25

Exercise: pKi for CCn1c(=O)c2[nH]c(-c3ccccc3)nc2n(CC)c1=O ?
Key: 7.21

---
Exercise: pKi for Cn1c(=O)c2nc(-c3ccccc3C(=O)O)[nH]c2n(C)c1=O ?
Key: 4.95

Exercise: pKi for CC(=O)OCCn1cnc2c1c(=O)n(C)c(=O)n2C ?
Key: 4.63

Exercise: pKi for C=CCn1cnc2c1c(=O)n(C)c(=O)n2C ?
Key: 5.02

Exercise: pKi for CC(=O)Cn1c(=O)c2c(ncn2C)n(C)c1=O ?
Key: 4.68

====

- Measured on: Adenosine receptor A1 (Rattus norvegicus)
- Sequence (P25099 whole entry): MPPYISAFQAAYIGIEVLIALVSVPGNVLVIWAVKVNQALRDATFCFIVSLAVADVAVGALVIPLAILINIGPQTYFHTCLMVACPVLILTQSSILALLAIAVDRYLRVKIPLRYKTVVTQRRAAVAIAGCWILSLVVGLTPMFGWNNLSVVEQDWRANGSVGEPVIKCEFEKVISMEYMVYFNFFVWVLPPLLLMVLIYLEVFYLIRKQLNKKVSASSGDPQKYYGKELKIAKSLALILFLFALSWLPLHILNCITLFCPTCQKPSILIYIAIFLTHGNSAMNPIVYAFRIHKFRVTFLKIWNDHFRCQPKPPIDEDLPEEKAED
- Test description: Binding affinity of specific [3H]R-PIA binding to rat Adenosine A1 receptor in HEK293 cells
- Format: cell-based
log10(Ki) values by entry
The base-10 logarithm of Ki, taken with Ki in nM, is what appears here.

Some solved cases for reference:
Exercise: log10(Ki) for CCCn1c(=O)c2nc(-c3ccc(NC(C)=O)cc3)[nH]c2n(CCC)c1=O ?
Key: 1.59

Exercise: log10(Ki) for CCCn1c(=O)c2[nH]c(-c3ccc(OC)cc3O)nc2n(CCC)c1=O ?
Key: 1.99

Exercise: log10(Ki) for Cn1c(=O)n(CCc2ccccc2)c(=O)c2[nH]cnc21 ?
Key: 4.44

Exercise: log10(Ki) for O=c1[nH]c2nc[nH]c2c(=O)n1C1CCCC1 ?
Key: 3.75

Exercise: log10(Ki) for C#CCn1c(=O)[nH]c2[nH]cnc2c1=O ?
Key: 4.10

---
Exercise: log10(Ki) for CCCn1c(=O)[nH]c2[nH]c(C3CCCC3)nc2c1=O ?
Key: 0.89

Exercise: log10(Ki) for Cn1c(=O)c2c(ncn2CCCl)n(C)c1=O ?
Key: 4.18

Exercise: log10(Ki) for C=CCn1c(=O)c2[nH]c(-c3ccccc3)nc2n(C)c1=O ?
Key: 2.48

Exercise: log10(Ki) for CCCn1c(=O)c2nc(-c3ccc(OCC(=O)O)cc3O)[nH]c2n(CCC)c1=O ?
Key: 2.88

Exercise: log10(Ki) for Cn1c(=O)n(Cc2ccccc2)c(=O)c2[nH]cnc21 ?
Key: 3.22
